Kindly state AD50 for each of the entries shown.
Organism: Rattus norvegicus
Protocol summary: Evaluated for the inhibition of A61603-induced prostate contraction in rat
Type: functional, Prostate gland
Give the value, in units of µg/kg, as a plain number.

GET /values?readout=AD50&item= `CC1=C(C(=O)NCCCN2CCC(c3ccccc3C#N)CC2)[C@@H](c2ccc(F)c(F)c2)NC(=O)N1`
3

// returns reported AD50 for input `N#Cc1cc(F)ccc1C1CCN(CCCNC(=O)C2=CNC(=O)N[C@@H]2c2ccc(F)c(F)c2)CC1`
1.8

If you can, please state the reported AD50 value of `CN1C=C(C(=O)NCCCN2CCC(c3ccc(F)cc3C#N)CC2)[C@@H](c2ccc(F)c(F)c2)NC1=O` .
5

# input compound: `CN1C=C(C(=O)NCCCN2CCC(C#N)(c3ccc(F)cc3C#N)CC2)[C@@H](c2ccc(F)c(F)c2)NC1=O` ; wanted: its AD50
4

Given the entry `N#Cc1ccccc1C1CCN(CCCNC(=O)C2=CNC(=O)N[C@@H]2c2ccc(F)c(F)c2)CC1` , report its measured AD50.
1.5

Which AD50 value belongs to `CC1=C(C(=O)NCCCN2CCC(c3ccccn3)CC2)[C@@H](c2ccc(F)c(F)c2)NC(=O)N1` ?
2.3

Request the reported AD50 associated with `CC1=C(C(=O)NCCCN2CCC(c3ccc(F)cc3)CC2)[C@@H](c2ccc(F)c(F)c2)NC(=O)N1C`
20

# lookup: AD50 of `CN1C=C(C(=O)NCCCN2CCC(C#N)(c3ccc(F)cc3)CC2)[C@H](c2ccc(F)c(F)c2)NC1=O`
145

Look at this compound and give its reported AD50. `CC1=C(C(=O)NCCCN2CCC(c3ccc(F)cc3)CC2)[C@@H](c2ccc(F)c(F)c2)NC(=O)N1`
1.8

Which AD50 is listed for `N#CC1(c2ccc(F)cc2)CCN(CCCNC(=O)C2=CNC(=O)N[C@@H]2c2ccc(F)c(F)c2)CC1` ?
7

Report AD50 for `CC1=C(C(=O)NCCCN2CCC(c3ccc(F)cc3C#N)CC2)[C@@H](c2ccc(F)c(F)c2)NC(=O)N1` please.
1.5

Suppose we examine the compound `COCC1=C(C(=O)NCCCN2CCC(c3ccccc3C#N)CC2)[C@@H](c2ccc(F)c(F)c2)NC(=O)N1` ; what AD50 value has been reported?
7

// returns reported AD50 for input `COCC1=C(C(=O)NCCCN2CCC(c3ccc(F)cc3)CC2)[C@@H](c2ccc(F)c(F)c2)NC(=O)N1`
4.6

# get_value(readout='AD50', item= `CC1=C(C(=O)NCCCN2CCC(c3ccc(F)cc3C#N)CC2)[C@@H](c2ccc(F)c(F)c2)NC(=O)N1C` )
7

Looking for the measured AD50 of `CC1=C(C(=O)NCCCN2CCC(C#N)(c3ccc(F)cc3C#N)CC2)[C@@H](c2ccc(F)c(F)c2)NC(=O)N1C` , can you help?
5

What measured AD50 goes with `CN1C=C(C(=O)NCCCN2CCC(C#N)(c3ccc(F)cc3)CC2)[C@@H](c2ccc(F)c(F)c2)NC1=O` ?
14
